Biological target: protein C activator of the present invention (Agkistrodon contortrix contortrix)
Sequence (P09872 whole entry, looked up): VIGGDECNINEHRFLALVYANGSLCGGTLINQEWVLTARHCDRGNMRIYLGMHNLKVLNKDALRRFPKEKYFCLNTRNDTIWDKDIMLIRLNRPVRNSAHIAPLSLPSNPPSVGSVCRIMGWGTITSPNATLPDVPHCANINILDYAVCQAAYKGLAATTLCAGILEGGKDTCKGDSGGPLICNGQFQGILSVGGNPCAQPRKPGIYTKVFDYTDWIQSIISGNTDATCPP
readoutLabel: Ki (µM)
State just the number; it will be interpreted in µM.

Kindly state the measured Ki obtained for NC(N)=NCCC[C@H](NC(=O)[C@@H]1CCCN1C(=O)[C@H](N)Cc1ccccc1)C(=O)CCl [D-Phe-Pro-Arg-chloromethylketone] with protein C activator of the present invention (Agkistrodon contortrix contortrix).
34
